system: parasites (ring stage parasites, parasite growth); test: Parasite LDH growth assay (Parasite Assay), antiparasite potency; type: cell-based; conditions: 72 h, 72 hours growth, LDH readout; Table 3
pEC50: −log10 of the molar value.
Hi, to clarify the labels: MET covers pEC50 from 8 upward, NOT MET covers anything below 8.

Does the reported pEC50 for "CC1(C)CC(=O)N([C@H](c2cccc(C#N)c2)[C@@H]2C[C@H]2C(=O)N[C@@H]2c3ccccc3OC(C)(C)[C@H]2O)C(=N)N1" fall at or above the 8 mark?
MET

Does the reported pEC50 for CC[C@]1(C)CC(=O)N([C@@H](c2cncc(F)c2)[C@@H]2C[C@H]2C(=O)N[C@@H]2c3ccccc3OCC2(C)C)C(=N)N1 [Example 102B] fall at or above the 8 mark?
MET

Does the reported pEC50 for COCC[C@H]([C@@H]1C[C@H]1C(=O)N[C@H]1CC(C)(C)Oc2cccc(OC)c21)N1C(=N)NC(C)(C)CC1=O [Example 74B] fall at or above the 8 mark?
MET

Does the reported pEC50 for "CCC1(CC)CC(=O)N(C[C@H]2[C@H](C(=O)N[C@H]3CC(C)(C)Oc4ccccc43)C2(C)C)C(=N)N1" fall at or above the 8 mark?
NOT MET

Does the reported pEC50 for "CC1(C)CC(=O)N([C@H](c2cncc(Cl)c2)[C@@H]2C[C@H]2C(=O)N[C@@H]2c3ccccc3OC(C)(C)[C@H]2O)C(=N)N1" fall at or above the 8 mark?
MET

Does the reported pEC50 for CCC1(CC)CC(=O)N([C@H](CCOC)[C@@H]2C[C@H]2C(=O)N[C@@H]2c3ccccc3OCC2(C)C)C(=N)N1 [Example 19B] fall at or above the 8 mark?
MET

Does the reported pEC50 for CC1(C)CC(=O)N([C@@H](c2ccc(C#N)cc2)[C@@H]2C[C@H]2C(=O)N[C@H]2C[C@H](C(F)(F)F)Oc3ccccc32)C(=N)N1 [Example 47A] fall at or above the 8 mark?
NOT MET

Does the reported pEC50 for CC1(C)CC(=O)N([C@H](c2cccnc2)[C@@H]2C[C@H]2C(=O)NC2CC(C)(C)Oc3c(Cl)cc(Cl)cc32)C(=N)N1 (stereo partly shown) [Example 94A] fall at or above the 8 mark?
MET

Does the reported pEC50 for Cc1ccc2c(c1)OC(C)(C)C[C@H]2NC(=O)[C@@H]1C[C@H]1[C@@H](c1cccnc1)N1C(=N)NC(C)(C)CC1=O [Example 85A] fall at or above the 8 mark?
MET

Does the reported pEC50 for COCC[C@H]([C@@H]1C[C@H]1C(=O)N[C@@H]1CC(C)(C)Oc2ccc(C(F)(F)F)cc21)N1C(=N)NC(C)(C)CC1=O [Example 110A] fall at or above the 8 mark?
NOT MET

Does the reported pEC50 for "CC1(C)CC(=O)N(C[C@@H]2C[C@H]2C(=O)N[C@H]2CC(C)(C)Oc3cccc(Cl)c32)C(=N)N1" fall at or above the 8 mark?
NOT MET

Does the reported pEC50 for "COc1ccc([C@H]([C@@H]2C[C@H]2C(=O)N[C@H]2C[C@H](C(F)(F)F)Oc3ccccc32)N2C(=N)NC(C)(C)CC2=O)cn1" fall at or above the 8 mark?
MET

Does the reported pEC50 for COCC[C@H]([C@@H]1C[C@H]1C(=O)N[C@H]1C[C@H](C(F)(F)F)Oc2ccccc21)N1C(=N)NC(C)(C)CC1=O [Example 24B] fall at or above the 8 mark?
MET

Does the reported pEC50 for CCC1(CC)CC(=O)N([C@H](CCOC)[C@@H]2C[C@H]2C(=O)N[C@H]2c3ccccc3OCC2(C)C)C(=N)N1 [Example 19A] fall at or above the 8 mark?
NOT MET

Does the reported pEC50 for "CC1(C)CC(=O)N([C@H](c2cccc(C#N)c2)[C@@H]2C[C@H]2C(=O)N[C@H]2C[C@H](C(F)(F)F)Oc3ccccc32)C(=N)N1" fall at or above the 8 mark?
MET

Does the reported pEC50 for COCC[C@H]([C@@H]1C[C@H]1C(=O)N[C@H]1CC(C)(C)Oc2cc(OC(F)(F)F)ccc21)N1C(=N)NC(C)(C)CC1=O [Example 134B] fall at or above the 8 mark?
NOT MET

Does the reported pEC50 for CC1(C)CC(=O)N([C@H](c2cccnc2)[C@@H]2C[C@H]2C(=O)NC2CC(C)(C)Oc3c(F)cccc32)C(=N)N1 (stereo partly shown) [Example 93A] fall at or above the 8 mark?
MET

Does the reported pEC50 for CC1(C)CC(=O)N(C[C@@H]2C[C@H]2C(=O)NC2CC(C)(C)Oc3c(Cl)cc(Cl)cc32)C(=N)N1 (stereo partly shown) [Example 97A] fall at or above the 8 mark?
NOT MET

Does the reported pEC50 for "CCC1(CC)CC(=O)N(C[C@@H]2C[C@H]2C(=O)N[C@H]2CC(C)(C)Oc3ccccc32)C(=N)N1" fall at or above the 8 mark?
NOT MET

Does the reported pEC50 for CC1(C)CC(=O)N([C@H](c2cccnc2)[C@@H]2C[C@H]2C(=O)N[C@@H]2CC(C)(C)Oc3cc(Cl)ccc32)C(=N)N1 [Example 91B] fall at or above the 8 mark?
MET

Does the reported pEC50 for "Cc1cc2c(cc1Cl)[C@@H](NC(=O)[C@@H]1C[C@H]1CN1C(=N)NC(C)(C)CC1=O)CC(C)(C)O2" fall at or above the 8 mark?
NOT MET

* * *

tested on: parasites (ring stage parasites, parasite growth); assay: Parasite LDH growth assay (Parasite Assay), antiparasite potency; assay type: cell-based; conditions: 72 h, 72 hours growth, LDH readout; Table 3
Please respond with reported EC50 for every item in the list.
Answer with a number only, understood to be in nM.

Please respond with reported EC50 (system parasites (ring stage parasites, parasite growth)) for CCC1(CC)CC(=O)N(C[C@@H]2C(C)[C@H]2C(=O)NC2c3ccccc3OC2(C)C)C(=N)N1 (stereo partly drawn) [Example 36A] .
247

Please respond with reported EC50 (system parasites (ring stage parasites, parasite growth)) for CCC1(CC)CC(=O)N(C[C@@H]2C(C)[C@H]2C(=O)N[C@H]2C[C@H](C(F)(F)F)Oc3ccccc32)C(=N)N1 (stereo partly drawn) [Example 28A] .
12

Please respond with reported EC50 (system parasites (ring stage parasites, parasite growth)) for COCC[C@H]([C@@H]1C[C@H]1C(=O)N[C@H]1CC(C)(C)Oc2c(F)cc(F)cc21)N1C(=N)NC(C)(C)CC1=O [Example 113B] .
7.5

Please respond with reported EC50 (system parasites (ring stage parasites, parasite growth)) for "CC1(C)CC(=O)N(C[C@@H]2C[C@H]2C(=O)N[C@H]2CC(C)(C)Oc3cccc(OC(F)(F)F)c32)C(=N)N1" .
63

Please respond with reported EC50 (system parasites (ring stage parasites, parasite growth)) for CC1(C)CC(=O)N([C@H](c2cccnc2)[C@@H]2C[C@H]2C(=O)NC2CC(C)(C)Oc3cc(F)ccc32)C(=N)N1 (stereo partly drawn) [Example 77A] .
1.7

Please respond with reported EC50 (system parasites (ring stage parasites, parasite growth)) for CC1(C)CC(=O)N([C@H](c2ccc(C#N)cc2)[C@@H]2C[C@H]2C(=O)N[C@H]2CC(C)(C)Oc3ccccc32)C(=N)N1 [Example 45A] .
2.8

* * *

test system: parasites (ring stage parasites, parasite growth); experiment: Parasite LDH growth assay (Parasite Assay), antiparasite potency; assay type: cell-based; conditions: 72 h, 72 hours growth, LDH readout; Table 3
Measured Endpoint: EC50 (nM)
Answer with a number only, understood to be in nM.

Fill in reported EC50 for this entry: CC1(C)CC(=O)N(C[C@@H]2C[C@H]2C(=O)NC2CC(C)(C)Oc3ccc(OC(F)(F)F)cc32)C(=N)N1 (stereo partly shown) [Example 125A]
231

Fill in reported EC50 for this entry: CC[C@]1(C)CC(=O)N([C@H](CCOC)[C@@H]2C[C@H]2C(=O)N[C@H]2C[C@H](C(F)(F)F)Oc3ccccc32)C(=N)N1 [Example 62B]
0.8

Fill in reported EC50 for this entry: COCC[C@H]([C@@H]1C[C@H]1C(=O)NC1CC(C)(C)Oc2c(F)cccc21)N1C(=N)NC(C)(C)CC1=O (stereo partly shown) [Example 111A]
24

Fill in reported EC50 for this entry: "CC1(C)CC(=O)N(C[C@@H]2C[C@H]2C(=O)N[C@H]2CC3(CCC3)Oc3ccccc32)C(=N)N1"
190

Fill in reported EC50 for this entry: "CCC1(CC)CC(=O)N(C[C@@H]2C[C@H]2C(=O)N[C@@H]2CC(C)(C)Oc3ccc(F)cc32)C(=N)N1"
29

Fill in reported EC50 for this entry: CCC1(C)CC(NC(=O)[C@@H]2C[C@H]2[C@@H](CCOC)N2C(=N)NC(C)(C)CC2=O)c2ccccc2O1 (stereo partly shown) [Example 75A]
8.2

Fill in reported EC50 for this entry: "CC[C@]1(C)CC(=O)N([C@H](CCOC)[C@@H]2C[C@H]2C(=O)N[C@H]2CC(C)(C)Oc3ccc(Cl)cc32)C(=N)N1"
0.8

# credit: patent US12338219B2
